Measured values drawn from patent US20220340951A1 for this set.

Assay: Antibiotic screening: CV, EIS and DPV of antibiotic solutions (without gels) on gold screen printed electrode
Format: physicochemical
Details: antibiotic at typical working concentration, no gel; EIS
Method: CV measurements were performed by sweeping the potential between −0.3 V to 0.5 V with reference to the Ag electrode three times. Analysis was performed using the third measurement. Electrodes were also characterised using differential pulse voltammetry (DPV) across the same potential range as CV. Peak current (Ipk) was extracted from the DPV measurement. Electrodes were also characterised using EIS. […]
The label Met is reserved for Z at 100 kHz strictly under 20 kΩ; Not met covers values equal to or above it.

Here's what some known entries look like.
COc1cccc(OC)c1C(=O)N[C@@H]1C(=O)N2[C@@H]1SC(C)(C)[C@@H]2C(=O)O: Met
CC1(C)S[C@@H]2[C@H](NC(=O)[C@H](N)c3ccc(O)cc3)C(=O)N2[C@H]1C(=O)O: Not met
CC1(C)S[C@@H]2[C@H](NC(=O)C(C(=O)O)c3ccccc3)C(=O)N2[C@H]1C(=O)O (stereo partly shown): Met
O=C(N[C@H](CO)[C@H](O)c1ccc([N+](=O)[O-])cc1)C(Cl)Cl: Met
CC1(C)S[C@@H]2[C@H](NC(=O)[C@H](N)c3ccccc3)C(=O)N2[C@H]1C(=O)O: Met

## Task Is 20 kΩ strictly greater than the molecule's reported Z at 100 kHz? molecule: "[H]/N=C(/N)N[C@H]1[C@H](O)[C@@H](O)[C@H](O[C@@H]2O[C@@H](C)[C@](O)(C=O)[C@H]2O[C@@H]2O[C@@H](CO)[C@H](O)[C@@H](O)[C@@H]2NC)[C@@H](N/C(N)=N\[H])[C@@H]1O"
## Result Met

## Task In plain terms, does "Cc1onc(-c2ccccc2)c1C(=O)N[C@@H]1C(=O)N2[C@@H]1SC(C)(C)[C@@H]2C(=O)O" come in under 20 kΩ for Z at 100 kHz?
## Result Not met

* * *

Here, each record is paired with measured DPV Ipk data.
Experiment: Antibiotic screening: CV, EIS and DPV of antibiotic solutions (without gels) on gold screen printed electrode
Assay type: physicochemical
Conditions: antibiotic at typical working concentration, no gel; DPV
Please state the number and follow it with the unit.

CC1(C)S[C@@H]2[C@H](NC(=O)C(C(=O)O)c3ccccc3)C(=O)N2[C@H]1C(=O)O (stereo partly shown): 0 μA

Entry under test: "Cc1onc(-c2ccccc2)c1C(=O)N[C@@H]1C(=O)N2[C@@H]1SC(C)(C)[C@@H]2C(=O)O" . Its DPV Ipk was 0 μA

Sure, the documented DPV Ipk for "[H]/N=C(/N)N[C@H]1[C@H](O)[C@@H](O)[C@H](O[C@@H]2O[C@@H](C)[C@](O)(C=O)[C@H]2O[C@@H]2O[C@@H](CO)[C@H](O)[C@@H](O)[C@@H]2NC)[C@@H](N/C(N)=N\[H])[C@@H]1O" is 0 μA

For record "CC1(C)S[C@@H]2[C@H](NC(=O)[C@H](N)c3ccccc3)C(=O)N2[C@H]1C(=O)O" the listed DPV Ipk is 0 μA

* * *

Test: Antibiotic screening: CV, EIS and DPV of antibiotic solutions (without gels) on gold screen printed electrode
Type: physicochemical
Settings: antibiotic at typical working concentration, no gel; fitted EIS
assay-endpoint: CDL (μF)
Please state the figure in μF; there is no need to write the unit.

CC1(C)S[C@@H]2[C@H](NC(=O)[C@H](N)c3ccc(O)cc3)C(=O)N2[C@H]1C(=O)O: 0.53
CC1(C)S[C@@H]2[C@H](NC(=O)C(C(=O)O)c3ccccc3)C(=O)N2[C@H]1C(=O)O (stereo partly shown): 0.44
COc1cccc(OC)c1C(=O)N[C@@H]1C(=O)N2[C@@H]1SC(C)(C)[C@@H]2C(=O)O: 0.53
CC1(C)S[C@@H]2[C@H](NC(=O)[C@H](N)c3ccccc3)C(=O)N2[C@H]1C(=O)O: 0.38
Cc1onc(-c2ccccc2)c1C(=O)N[C@@H]1C(=O)N2[C@@H]1SC(C)(C)[C@@H]2C(=O)O: 0.28

Form: compound = "O=C(N[C@H](CO)[C@H](O)c1ccc([N+](=O)[O-])cc1)C(Cl)Cl" ; CDL = 0.41

The measured CDL associated with "[H]/N=C(/N)N[C@H]1[C@H](O)[C@@H](O)[C@H](O[C@@H]2O[C@@H](C)[C@](O)(C=O)[C@H]2O[C@@H]2O[C@@H](CO)[C@H](O)[C@@H](O)[C@@H]2NC)[C@@H](N/C(N)=N\[H])[C@@H]1O" reads 0.58

* * *

Assay: Antibiotic screening: CV, EIS and DPV of antibiotic solutions (without gels) on gold screen printed electrode
Type: physicochemical
Settings: antibiotic at typical working concentration, no gel; EIS
The compounds listed here are annotated with their Phase.
Give your result in ° as a bare value.

These recorded examples may help you get a feel for the data.
CC1(C)S[C@@H]2[C@H](NC(=O)[C@H](N)c3ccccc3)C(=O)N2[C@H]1C(=O)O: 67.63
COc1cccc(OC)c1C(=O)N[C@@H]1C(=O)N2[C@@H]1SC(C)(C)[C@@H]2C(=O)O: 61.43
O=C(N[C@H](CO)[C@H](O)c1ccc([N+](=O)[O-])cc1)C(Cl)Cl: 76.20
Cc1onc(-c2ccccc2)c1C(=O)N[C@@H]1C(=O)N2[C@@H]1SC(C)(C)[C@@H]2C(=O)O: 111.17
CC1(C)S[C@@H]2[C@H](NC(=O)C(C(=O)O)c3ccccc3)C(=O)N2[C@H]1C(=O)O (stereo partly shown): 46.56

Record "CC1(C)S[C@@H]2[C@H](NC(=O)[C@H](N)c3ccc(O)cc3)C(=O)N2[C@H]1C(=O)O" . Reported Phase: 82.74

Phase reading for "[H]/N=C(/N)N[C@H]1[C@H](O)[C@@H](O)[C@H](O[C@@H]2O[C@@H](C)[C@](O)(C=O)[C@H]2O[C@@H]2O[C@@H](CO)[C@H](O)[C@@H](O)[C@@H]2NC)[C@@H](N/C(N)=N\[H])[C@@H]1O" : 58.51

* * *

molecules and their reported RSOLN
Test: Antibiotic screening: CV, EIS and DPV of antibiotic solutions (without gels) on gold screen printed electrode
Assay type: physicochemical
Conditions: antibiotic at typical working concentration, no gel; fitted EIS

[H]/N=C(/N)N[C@H]1[C@H](O)[C@@H](O)[C@H](O[C@@H]2O[C@@H](C)[C@](O)(C=O)[C@H]2O[C@@H]2O[C@@H](CO)[C@H](O)[C@@H](O)[C@@H]2NC)[C@@H](N/C(N)=N\[H])[C@@H]1O: 55.85 kΩ
CC1(C)S[C@@H]2[C@H](NC(=O)C(C(=O)O)c3ccccc3)C(=O)N2[C@H]1C(=O)O (stereo partly shown): 11.83 kΩ
O=C(N[C@H](CO)[C@H](O)c1ccc([N+](=O)[O-])cc1)C(Cl)Cl: 94.39 kΩ
Cc1onc(-c2ccccc2)c1C(=O)N[C@@H]1C(=O)N2[C@@H]1SC(C)(C)[C@@H]2C(=O)O: 49.81 kΩ
COc1cccc(OC)c1C(=O)N[C@@H]1C(=O)N2[C@@H]1SC(C)(C)[C@@H]2C(=O)O: 67.30 kΩ

The molecule listed as "CC1(C)S[C@@H]2[C@H](NC(=O)[C@H](N)c3ccccc3)C(=O)N2[C@H]1C(=O)O" has a reported RSOLN of 40.93 kΩ

Entry "CC1(C)S[C@@H]2[C@H](NC(=O)[C@H](N)c3ccc(O)cc3)C(=O)N2[C@H]1C(=O)O" ; RSOLN = 143.30 kΩ

* * *

Assay: Antibiotic screening: CV, EIS and DPV of antibiotic solutions (without gels) on gold screen printed electrode
Assay type: physicochemical
Conditions: antibiotic at typical working concentration, no gel; DPV
assay-endpoint: DPV Ipk (μA)
All answers are understood in μA, so give the number only.

Reference set, count: 2
O=C(N[C@H](CO)[C@H](O)c1ccc([N+](=O)[O-])cc1)C(Cl)Cl [chloramphenicol]: 0.31
CC1(C)S[C@@H]2[C@H](NC(=O)[C@H](N)c3ccc(O)cc3)C(=O)N2[C@H]1C(=O)O [amoxicillin]: 0.02

# input for lookup
Just so you know, measured DPV Ipk for COc1cccc(OC)c1C(=O)N[C@@H]1C(=O)N2[C@@H]1SC(C)(C)[C@@H]2C(=O)O [methicillin] came out at 0.06
